Quick reference: half-life of the listed items.
- assay comment: Half-life in Wistar Han rat
- Assay type: ADME
- test context: in vivo
Form entry: value (min) — number only.

Below, 6 compounds whose answers are already recorded.
Challenge: Name the reported half-life value associated with the compound `CCC(=O)N1CC[C@H](Nc2ncnc3c2nc(-c2cnn(CC)c2C)n3C)C1`
Response given: 24

Challenge: Name the reported half-life value associated with the compound `CCn1ncc(-c2nc3c(N[C@H]4CCN(C(=O)C5CC5)C4)ncnc3n2C)c1C`
Response given: 18

Challenge: Name the reported half-life value associated with the compound `CCn1ncc(-c2nc3c(N4CCC(n5c(=O)[nH]c6ncccc65)CC4)ncnc3n2C)c1C`
Response given: 72

Challenge: Name the reported half-life value associated with the compound `CC[C@H](Nc1ncnc2c1nc(-c1cnn(CC)c1C)n2C)C(=O)N1C[C@@H](C)O[C@@H](C)C1`
Response given: 18

Challenge: Name the reported half-life value associated with the compound `CCn1ncc(-c2nc3c(O[C@H]4CCN(C(=O)C5CCOCC5)C4)ncnc3n2C)c1C`
Response given: 48

Challenge: Name the reported half-life value associated with the compound `CCn1ncc(-c2nc3c(O[C@H]4CCN(C(=O)C5CC5)C4)ncnc3n2C)c1C`
Response given: 24

# ---- query compound ----
Challenge: Name the reported half-life value associated with the compound `CCn1ncc(-c2nc3c(N[C@H]4CCN(C(=O)C5CCOCC5)C4)ncnc3n2C)c1C`
Response given: 12
